# target desc: HIV-1 Reverse Transcriptase (Human immunodeficiency virus type 1 group M subtype B)
# Construct: Lys101, Val179 (p66 subunit) and Glu138 (p51 subunit); purchased Roche
# assay summary: HIV-1 RT inhibitory action, colorimetric photometric immunoassay kit (Roche)
# Assay type: biochemical
measured property: inhibition at 4 µM (%)
Just the number please, in %, no unit attached.

molecule O=C1CSC(c2ccc([N+](=O)[O-])cc2)N1c1nc2ccc(F)cc2s1 (stereo not shown) , inhibition at 4 µM observed: 54

molecule COc1ccc(C2SCC(=O)N2c2nc3c(OC)cccc3s2)cc1 (stereo not shown) , inhibition at 4 µM observed: 72

molecule COc1cccc2sc(N3C(=O)CSC3c3ccc(Cl)cc3)nc12 (stereo not shown) , inhibition at 4 µM observed: 67

molecule COc1ccc(C2SCC(=O)N2c2nc3ccc(OC)cc3s2)cc1 (stereo not shown) , inhibition at 4 µM observed: 73

molecule O=C1CSC(c2ccc(F)cc2)N1c1nc2ccc(Cl)cc2s1 (stereo not shown) , inhibition at 4 µM observed: 83

molecule COc1ccc2nc(N3C(=O)CSC3c3ccc(F)cc3)sc2c1 (stereo not shown) , inhibition at 4 µM observed: 55

molecule CCOc1ccc2nc(N3C(=O)CSC3c3ccc([N+](=O)[O-])cc3)sc2c1 (stereo not shown) , inhibition at 4 µM observed: 44
